Recorded EC50, one value per entry.
- System: HCV replicon cells
- method notes: HCV replicon FRET / luciferase assay
- Format: cell-based, Hepatitis C virus
- measurement setup: HCV replicon cells, FRET or luciferase activity

Illustrative cases are given below, each with its answer.
COc1ccc2c(c1)C1CC1(C(=O)N1C3CCC1CN(C)C3)Cn1c-2c(C2CCCCC2)c2ccc(C(=O)NS(C)(=O)=O)cc21 (stereo not drawn) [drawing 114]	1 to 500 nM
COc1ccc2c(c1)C1CC1C(C(=O)N1C3CCC1CN(C)C3)n1c-2c(C2CCCCC2)c2ccc(C(=O)NS(=O)(=O)C3CC3)cc21 (stereo not drawn) [drawing 113]	1 to 500 nM

Now for a further compound.
Ask: Field request: EC50 | item: COc1ccc2c(c1)C1CC1(C(=O)NC1CC3CCC(C1)N3C)Cn1c-2c(C2CCCCC2)c2ccc(C(=O)NS(=O)(=O)N(C)C)cc21 (stereo not drawn) [drawing 64]
Reply: 1 to 500 nM
